Biological target: adenosine A2B receptor (Homo sapiens (Human), UniProt P29275)
Sequence (P29275 whole entry): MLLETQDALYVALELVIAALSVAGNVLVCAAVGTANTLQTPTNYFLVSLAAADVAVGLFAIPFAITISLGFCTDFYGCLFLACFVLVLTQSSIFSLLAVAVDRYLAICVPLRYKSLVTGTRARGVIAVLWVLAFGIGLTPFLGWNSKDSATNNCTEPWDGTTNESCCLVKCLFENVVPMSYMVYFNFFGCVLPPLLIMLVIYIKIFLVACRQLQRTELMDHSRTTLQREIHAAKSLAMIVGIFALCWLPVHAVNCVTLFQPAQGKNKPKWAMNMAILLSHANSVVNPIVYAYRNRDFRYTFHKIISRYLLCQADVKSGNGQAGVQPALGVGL
Experiment: Adenosine receptor activity assay (Table 1), A2B activity
Type: biochemical
Details: A2A activity to the A2B activity; A2A/A2B
MEASURED_ATTRIBUTE: Ratio

The cases that follow already have their Ratio on record.
{"COMPOUND": "C[C@H](Nc1nc(C(=O)N2CC(NC(=O)c3ccc(C(F)(F)F)o3)C2)c2sccc2n1)c1cncc(F)c1", "OBSERVED_RESULT": 2.40}
{"COMPOUND": "C[C@H](Nc1nc(C(=O)N2CC(NC(=O)C3(C(F)(F)F)CC3)C2)c2sccc2n1)c1cncc(F)c1", "OBSERVED_RESULT": 0.98}
{"COMPOUND": "Cc1cc2nc(N[C@@H](C)c3ccccn3)nc(C(=O)NCc3cccnc3)c2s1", "OBSERVED_RESULT": 2.70}
{"COMPOUND": "CCNC1CN(C(=O)c2nc(N[C@@H](C)c3cncc(F)c3)nc3cc(C)sc23)C1", "OBSERVED_RESULT": 58.55}
{"COMPOUND": "C[C@H](Nc1nc(C(=O)N2CC(NC(=O)C3CCOC3)C2)c2sccc2n1)c1cncc(F)c1 (stereo partly drawn)", "OBSERVED_RESULT": 3.87}

[1] C[C@H](Nc1nc(C(=O)N2CC(NC(=O)C3CCC(F)(F)CC3)C2)c2sccc2n1)c1cncc(F)c1
[2] C[C@H](Nc1nc(C(=O)N2CC(NC(=O)c3ccc(F)c(F)c3)C2)c2sccc2n1)c1cncc(F)c1
[3] COC[C@H]1CCN1C(=O)c1nc(N[C@@H](C)c2cncc(F)c2)nc2cc(C)sc12
[4] C[C@H](Nc1nc(C(=O)N2CCC(C(=O)NOC(C)(C)C)C2)c2sccc2n1)c1cncc(F)c1 (stereo partly drawn)
Please produce an ascending ranking of these compounds based on Ratio. Sort and list the labels as requested.
4, 1, 2, 3
(4: 0.63, 1: 1.24, 2: 4.32, 3: 84.36)

[I] C[C@H](Nc1nc(C(=O)NCCc2cccc(O)c2)c2sccc2n1)c1cncc(F)c1
[II] C[C@H](Nc1nc(C(=O)N2CC(C(=O)NCCO)C2)c2sccc2n1)c1cncc(F)c1
[III] Cc1cc2nc(N[C@@H](C)c3cncc(F)c3)nc(C(=O)N3CC[C@@H](CN)C3)c2s1
[IV] C[C@H](Nc1nc(C(=O)N2CC(NC(=O)c3ccccc3)C2)c2sccc2n1)c1cncc(F)c1
Ascending by Ratio, please: list the compounds accordingly. Answer format: list of labels, ordered as asked.
IV, I, II, III

The measurements presented in this section are drawn from patent US11254686B1.
